Just for reference, ChEMBL document CHEMBL3991601 is where these values come from.

target: Putative heat shock protein HSP 90-beta 2 (Homo sapiens); note: in the data inactive means no Kd found up to 30 µM
Sequence (Q58FF8 whole entry): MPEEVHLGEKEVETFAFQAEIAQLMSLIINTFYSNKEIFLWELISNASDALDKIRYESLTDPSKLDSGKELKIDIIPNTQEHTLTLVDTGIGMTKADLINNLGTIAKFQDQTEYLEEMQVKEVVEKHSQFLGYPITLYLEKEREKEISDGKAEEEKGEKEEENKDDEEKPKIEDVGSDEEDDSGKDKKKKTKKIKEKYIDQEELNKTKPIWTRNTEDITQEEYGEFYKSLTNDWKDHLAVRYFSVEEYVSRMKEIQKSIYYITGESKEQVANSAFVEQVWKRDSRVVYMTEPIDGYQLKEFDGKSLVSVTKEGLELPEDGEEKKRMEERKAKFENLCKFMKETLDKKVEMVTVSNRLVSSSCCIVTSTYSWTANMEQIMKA
Activity calls are given as the source filed them.

{"columns": ["MOLECULE", "Kd"],
 "data": [
  ["CCN(CCCOc1ccc2c(Nc3cc(CC(=O)Nc4cccc(F)c4)n[nH]3)ncnc2c1)CCOP(=O)(O)O [BARASERTIB]", "> 30 µM (inactive)"],
  ["FC(F)(F)c1ccc(CNc2ccc(Cc3c[nH]c4ncc(Cl)cc34)cn2)cn1 [PEXIDARTINIB]", "> 30 µM (inactive)"],
  ["Cc1c(Cn2c(C)nc3c(C(=O)O)cc(N4CCOCC4)cc32)cccc1C(F)(F)F [GSK-2636771]", "> 30 µM (inactive)"]
]}
